Attribution: patent US12441726B2

target: BRM (Homo sapiens, UniProt P51531); assay: ATPase catalytic activity assay (ADP-Glo), BRM; conditions: BRM ATPase: IC50 (uM), 30 nM BRM, 400 μM ATP
Sequence (P51531 whole entry): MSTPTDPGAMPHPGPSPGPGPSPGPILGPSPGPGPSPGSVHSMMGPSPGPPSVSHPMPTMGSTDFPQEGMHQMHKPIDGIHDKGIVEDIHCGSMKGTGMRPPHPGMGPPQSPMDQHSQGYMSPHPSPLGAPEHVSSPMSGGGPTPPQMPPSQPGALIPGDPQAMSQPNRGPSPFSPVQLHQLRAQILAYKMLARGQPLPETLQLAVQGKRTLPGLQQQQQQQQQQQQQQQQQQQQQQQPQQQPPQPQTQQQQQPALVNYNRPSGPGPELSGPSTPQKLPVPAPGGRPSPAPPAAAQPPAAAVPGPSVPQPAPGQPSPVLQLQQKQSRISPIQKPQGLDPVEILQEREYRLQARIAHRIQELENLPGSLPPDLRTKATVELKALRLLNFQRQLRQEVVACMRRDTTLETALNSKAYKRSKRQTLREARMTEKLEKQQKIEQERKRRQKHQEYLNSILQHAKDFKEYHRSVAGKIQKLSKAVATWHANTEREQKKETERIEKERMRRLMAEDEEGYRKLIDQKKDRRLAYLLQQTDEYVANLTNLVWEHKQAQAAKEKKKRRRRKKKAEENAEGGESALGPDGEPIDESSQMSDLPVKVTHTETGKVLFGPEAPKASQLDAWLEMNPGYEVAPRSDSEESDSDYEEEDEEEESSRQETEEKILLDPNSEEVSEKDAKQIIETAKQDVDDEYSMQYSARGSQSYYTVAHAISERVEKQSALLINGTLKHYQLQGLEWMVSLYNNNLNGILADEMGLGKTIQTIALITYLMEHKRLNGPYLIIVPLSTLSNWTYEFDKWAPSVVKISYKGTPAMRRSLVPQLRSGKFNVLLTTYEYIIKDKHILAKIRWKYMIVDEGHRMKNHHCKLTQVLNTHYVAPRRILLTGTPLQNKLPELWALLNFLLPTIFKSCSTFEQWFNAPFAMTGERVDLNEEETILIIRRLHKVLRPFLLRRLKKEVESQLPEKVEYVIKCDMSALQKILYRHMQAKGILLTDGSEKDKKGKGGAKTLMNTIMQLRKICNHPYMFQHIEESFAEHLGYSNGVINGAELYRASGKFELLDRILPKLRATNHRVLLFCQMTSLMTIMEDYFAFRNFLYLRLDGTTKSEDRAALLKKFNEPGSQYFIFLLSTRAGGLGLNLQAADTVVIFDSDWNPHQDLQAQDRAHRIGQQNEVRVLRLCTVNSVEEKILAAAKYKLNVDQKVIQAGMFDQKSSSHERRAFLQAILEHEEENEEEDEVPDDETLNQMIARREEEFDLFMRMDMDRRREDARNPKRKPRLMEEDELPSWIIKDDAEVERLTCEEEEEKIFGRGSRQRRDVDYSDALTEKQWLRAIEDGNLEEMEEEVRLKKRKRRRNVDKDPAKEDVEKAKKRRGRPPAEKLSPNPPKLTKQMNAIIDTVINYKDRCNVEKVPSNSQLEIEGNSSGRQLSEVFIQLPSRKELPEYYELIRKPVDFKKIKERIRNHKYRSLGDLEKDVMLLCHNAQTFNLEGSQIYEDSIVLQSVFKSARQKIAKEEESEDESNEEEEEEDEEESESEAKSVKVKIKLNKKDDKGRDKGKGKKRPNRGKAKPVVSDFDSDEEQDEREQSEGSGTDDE
# IC50 per entry

See these solved cases before continuing.
entry_smiles: Cn1c(=O)ccc2ccc(-c3ccc4cnc(CNC(=O)c5ccc6c(c5)[C@](C)(C#N)COC6)cc4n3)nc21
property_name: IC50
result: < 0.1 µM

entry_smiles: CN1CCN(c2nccc(-c3ccc4cnc(CNC(=O)c5ccc6c(c5)[C@](C)(F)COC6)cc4n3)n2)CC1=O
property_name: IC50
result: < 0.1 µM

entry_smiles: C[C@@]1(C#N)COCc2ccc(C(=O)NCc3cc(C#Cc4cccc(C(F)F)c4)ccn3)cc21
property_name: IC50
result: 0.1 to 0.5 µM

query: Reported IC50 for Cc1cnn(-c2ccc3cnc(CNC(=O)c4ccc5c(c4)[C@](C)(C#N)COC5)cc3n2)c1 : what is it?
result: 0.1 to 0.5 µM

query: Try C[C@@]1(C#N)COCc2ccc(C(=O)NCc3cc(/C(F)=C(\F)c4ccccc4)ccn3)cc21 next.
result: 0.1 to 0.5 µM

query: Please answer likewise for C[C@@]1(C#N)COCc2ccc(C(=O)NCc3cc(CCc4ccccc4)ccn3)cc21
result: 0.1 to 0.5 µM

query: Similarly, COc1nn(C)cc1-c1ccc2cnc(CNC(=O)c3ccc4c(c3)[C@](C)(C#N)COC4)cc2c1 ?
result: < 0.1 µM

query: Now consider C[C@@]1(C#N)COCc2ccc(C(=O)NCc3cc4nc(-n5ccc(N6CCC6)n5)ccc4cn3)cc21 and answer again.
result: 0.1 to 0.5 µM

query: Can you handle COCCNC(=O)c1ccc(-c2ccc3cnc(CNC(=O)c4ccc5c(c4)[C@](C)(C#N)COC5)cc3n2)cc1 next?
result: 0.1 to 0.5 µM

query: Also, CN1C(=O)Cc2ccc(-c3ccc4cnc(CNC(=O)c5ccc6c(c5)[C@](C)(C#N)COC6)cc4n3)cc21 please.
result: 0.1 to 0.5 µM

query: // next record Cn1ccc2c(c1=O)CCN(c1ccnc(CNC(=O)c3ccc4c(c3)[C@](C)(C#N)COC4)c1)C2
result: 0.1 to 0.5 µM

---

target: UniProtKB P51532; assay: ATPase catalytic activity assay (ADP-Glo), BRG-1; conditions: 1 h, read-out: BRG1 Max % Inhibition, ADP-Glo, 30 nM BRG-1, 400 μM ATP
property_name: Emax (%)
State the answer as a number, implicitly in %.

entry_smiles: C[C@@]1(C#N)COCc2ccc(C(=O)NCc3cc4nc(N5CCN(C6CCC6)C5=O)ccc4cn3)cc21
unit_info: %
numeric_result: 72

entry_smiles: COc1ccc(-c2ccc3cnc(CNC(=O)c4ccc5c(c4)[C@](C)(C#N)COC5)cc3n2)cc1
unit_info: %
numeric_result: 91

entry_smiles: C[C@@]1(C#N)COCc2ccc(C(=O)NCc3cc4c(cn3)CCN(c3ccccn3)C4)cc21
unit_info: %
numeric_result: 43

entry_smiles: COc1cncc(-c2ccc3nnc(CNC(=O)c4ccc5c(c4)[C@](C)(C#N)COC5)cc3c2)n1
unit_info: %
numeric_result: 87

entry_smiles: CN1Cc2cc(-c3ccc4cnc(CNC(=O)c5ccc6c(c5)[C@](C)(C#N)COC6)cc4n3)ccc2C1=O
unit_info: %
numeric_result: 88

entry_smiles: Cc1ccn(-c2ccc3cnc(CNC(=O)c4ccc5c(c4)[C@](C)(C#N)COC5)cc3n2)n1
unit_info: %
numeric_result: 72

query: I would be grateful if you could share the reported Emax for O=C(NCc1cc2nc(-c3cncc(C4CC4)n3)ccc2cn1)c1cnc2c(c1)[C@](F)(C(F)F)CCO2 .
result: 63

query: Please give the result for CN(C)c1cccc(-c2ccc3cnc(CNC(=O)c4ccc5c(c4)[C@](C)(C#N)COC5)cc3n2)n1 too.
result: 99

query: // next record O=C(NCc1cc2nc(-c3ccccc3)ccc2cn1)c1cccc(C2(C(F)F)COC2)c1
result: 25

query: // same read-out, input: C[C@@]1(F)COCc2ccc(C(=O)NCc3cc4nc(-c5ccnn(C6CC6)c5=O)ccc4cn3)cc21
result: 67

query: Consider next the compound C[C@@]1(C#N)COCc2ccc(C(=O)NCc3cc(N4CCN(c5ccccc5)CC4)ccn3)cc21 in the same way.
result: 84

---

biological target: BRM (Homo sapiens); experiment: ATPase catalytic activity assay (ADP-Glo), BRM; conditions: BRM ATPase: IC50 (uM), 30 nM BRM, 400 μM ATP
Documented IC50 across a set of compounds

entry_smiles: COC[C@H](NC(=O)c1ccc2c(c1)[C@](C)(C#N)COC2)c1cc(C#Cc2ccccc2)ccn1
result: > 1 µM

query: Notebook: pull reported IC50 for BRM (Homo sapiens), entry C[C@@]1(C#N)COCc2ccc(C(=O)NCc3cc4nc(-c5ccnc(C6CCOCC6)n5)ccc4cn3)cc21
result: 0.1 to 0.5 µM

query: Likewise for C[C@@]1(C#N)COCc2ccc(C(=O)NCc3cc4nc(-c5ccnc(C6COC6)n5)ccc4cn3)cc21 ?
result: 0.1 to 0.5 µM

---

biological target: UniProtKB P51531; test: ATPase catalytic activity assay (ADP-Glo), BRM; settings: BRM ATPase: IC50 (uM), 30 nM BRM, 400 μM ATP
IC50: recorded values

query: Look up IC50 for this compound: C[C@@]1(C#N)COCc2ccc(C(=O)NCc3cc4nc(-c5cccc6c5ccn6CC(F)F)ccc4cn3)cc21
result: < 0.1 µM

query: Would you mind doing C[C@]1(C#N)CCOc2ncc(C(=O)NCc3cc4nc(-c5cncc(C6CC6)n5)ccc4cn3)cc21 as well?
result: 0.1 to 0.5 µM

query: Now consider CN(C)c1nccc(N2CCc3cnc(CNC(=O)c4ccc5c(c4)[C@](C)(C#N)COC5)cc3C2)n1 and answer again.
result: 0.1 to 0.5 µM

query: Thanks! And COc1ccccc1-c1cnc2cnc(CNC(=O)c3ccc4c(c3)[C@](C)(F)COC4)cc2n1 ?
result: < 0.1 µM

---

The following molecules are listed with their measured Emax values.
biological target: BRG-1 (Homo sapiens, UniProt P51532); assay: ATPase catalytic activity assay (ADP-Glo), BRG-1; conditions: 1 h, read-out: BRG1 Max % Inhibition, ADP-Glo, 30 nM BRG-1, 400 μM ATP
Sequence (P51532 whole entry): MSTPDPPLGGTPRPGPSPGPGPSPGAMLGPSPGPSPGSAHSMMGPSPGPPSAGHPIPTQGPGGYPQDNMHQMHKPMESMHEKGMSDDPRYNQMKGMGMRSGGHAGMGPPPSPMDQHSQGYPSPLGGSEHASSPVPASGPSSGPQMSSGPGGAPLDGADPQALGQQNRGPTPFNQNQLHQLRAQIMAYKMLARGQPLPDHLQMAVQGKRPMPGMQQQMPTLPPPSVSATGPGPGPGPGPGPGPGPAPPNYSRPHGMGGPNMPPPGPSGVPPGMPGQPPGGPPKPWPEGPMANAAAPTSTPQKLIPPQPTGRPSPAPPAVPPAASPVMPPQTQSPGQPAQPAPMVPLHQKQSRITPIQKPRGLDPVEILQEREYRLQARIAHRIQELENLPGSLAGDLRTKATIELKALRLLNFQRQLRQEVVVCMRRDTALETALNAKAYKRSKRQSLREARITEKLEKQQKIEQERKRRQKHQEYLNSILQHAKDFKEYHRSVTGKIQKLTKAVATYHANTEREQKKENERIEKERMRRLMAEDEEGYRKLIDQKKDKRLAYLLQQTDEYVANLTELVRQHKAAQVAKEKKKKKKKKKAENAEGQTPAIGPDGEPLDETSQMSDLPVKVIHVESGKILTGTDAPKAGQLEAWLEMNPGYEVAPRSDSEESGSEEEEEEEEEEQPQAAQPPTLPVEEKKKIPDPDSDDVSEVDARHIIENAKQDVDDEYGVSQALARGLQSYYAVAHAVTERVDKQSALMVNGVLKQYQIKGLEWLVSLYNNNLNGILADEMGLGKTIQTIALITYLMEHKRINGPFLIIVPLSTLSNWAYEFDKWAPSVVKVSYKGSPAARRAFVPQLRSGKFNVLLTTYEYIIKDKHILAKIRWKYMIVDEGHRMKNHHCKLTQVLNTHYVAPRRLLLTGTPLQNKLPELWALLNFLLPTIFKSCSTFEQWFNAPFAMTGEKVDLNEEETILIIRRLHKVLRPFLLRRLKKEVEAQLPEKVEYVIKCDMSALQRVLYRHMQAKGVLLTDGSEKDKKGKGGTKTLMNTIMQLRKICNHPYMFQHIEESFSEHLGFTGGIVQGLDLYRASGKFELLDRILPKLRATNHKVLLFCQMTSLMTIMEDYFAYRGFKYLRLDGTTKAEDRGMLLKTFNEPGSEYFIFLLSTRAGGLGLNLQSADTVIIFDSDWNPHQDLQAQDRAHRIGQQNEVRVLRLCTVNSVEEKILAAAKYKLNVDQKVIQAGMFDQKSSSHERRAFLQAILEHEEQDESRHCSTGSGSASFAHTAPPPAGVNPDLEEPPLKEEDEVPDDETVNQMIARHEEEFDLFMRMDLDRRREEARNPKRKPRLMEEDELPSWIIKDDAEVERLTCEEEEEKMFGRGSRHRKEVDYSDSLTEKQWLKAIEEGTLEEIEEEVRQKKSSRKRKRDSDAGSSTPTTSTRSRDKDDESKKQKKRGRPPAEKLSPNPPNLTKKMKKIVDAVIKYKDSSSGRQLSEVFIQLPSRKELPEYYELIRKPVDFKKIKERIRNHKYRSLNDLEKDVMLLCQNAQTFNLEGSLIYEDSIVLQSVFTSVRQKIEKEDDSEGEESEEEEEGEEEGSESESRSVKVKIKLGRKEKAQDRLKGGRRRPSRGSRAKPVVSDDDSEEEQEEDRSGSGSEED
Kindly answer with a numeric value in %, unit omitted.

Below: 8 molecules and their reported Emax.
molecule: Cn1ncc2ccc(-c3ccc4cnc(CNC(=O)c5ccc6c(c5)[C@](C)(C#N)COC6)cc4n3)cc21
Emax [%]: 86
--
molecule: Cn1ccc2ccc(-c3ccc4cnc(CNC(=O)c5ccc6c(c5)[C@](C)(C#N)COC6)cc4n3)nc2c1=O
Emax [%]: 59
--
molecule: C[C@@]1(F)COCc2ccc(C(=O)NCc3cc4nc(-c5ccccc5)ccc4nn3)cc21
Emax [%]: 69
--
molecule: C[C@@]1(C#N)COCc2ccc(C(=O)NCc3cc4nc(N5CCn6nccc6C5)ccc4cn3)cc21
Emax [%]: 70
--
molecule: C[C@@]1(C#N)COCc2ccc(C(=O)NCc3ncc4ccc(-c5ccccc5)nc4c3F)cc21
Emax [%]: 69
--
molecule: C[C@@]1(F)COCc2c(F)cc(C(=O)NCc3cc4nc(-c5ccccc5)ccc4cn3)cc21
Emax [%]: 65
--
molecule: COc1nn(C)cc1-c1cnc2cnc(CNC(=O)c3ccc4c(c3)[C@](C)(F)COC4)cc2c1
Emax [%]: 56
--
molecule: C[C@@]1(C#N)COCc2ccc(C(=O)NCc3cc(N4CCC(F)(c5ccccc5)C4)ccn3)cc21 (some centres unmarked)
Emax [%]: 75

query: Endpoint output: Emax of C[C@@]1(F)COCc2ccc(C(=O)NCc3cc4cc(-c5ccnn(C6CC6)c5=O)ccc4cn3)cc21 . Value?
result: 65

query: Another molecule to check: C[C@@]1(C#N)COCc2ccc(C(=O)NCc3cc4nc(-c5cccc(C(F)F)n5)ccc4cn3)cc21
result: 85

query: Could you do the same for C[C@@]1(C#N)COCc2ccc(C(=O)NCc3cc4nc(-c5ccc(C(F)F)nc5)ccc4cn3)cc21 , please?
result: 63

query: # iterate: C[C@@]1(C#N)COCc2ccc(C(=O)NCc3cc(OCc4ccccn4)ccn3)cc21
result: 44

query: Another molecule to look at: COC(=O)c1cccc(C#Cc2ccnc(CNC(=O)c3ccc4c(c3)[C@](C)(C#N)CCN4)c2)c1
result: 28

query: Try the molecule C[C@@H]1COCCN1c1nccc(-c2ccc3cnc(CNC(=O)c4ccc5c(c4)[C@](C)(C#N)COC5)cc3n2)n1
result: 94

query: Now consider C[C@@H]1CN(c2cccc(-c3ccc4[nH]c(CNC(=O)c5ccc6c(c5)[C@](C)(CO)CC6)nc4c3)c2)C[C@H](C)O1 and answer again.
result: 61.2

---

Below, each entry is listed alongside its reported pIC50.
molecular target: BRG-1 (Homo sapiens, UniProt P51532); assay: ATPase catalytic activity assay (ADP-Glo), BRG-1
pIC50: −log10 of the molar value.

Some compounds with known pIC50 results, for comparison:
compound: C[C@@]1(C#N)COCc2ccc(C(=O)NCc3cc4nc(-c5ccccc5)cnc4cn3)cc21 [Compound 463]
result: 6.00 to 6.30
--
compound: Cc1cc2c(-c3ccc4cnc(CNC(=O)c5ccc6c(c5)[C@](C)(C#N)COC6)cc4n3)ccc(F)c2n1C [Compound 129]
result: > 7.00
--
compound: C[C@@]1(C#N)COCc2ccc(C(=O)NCc3nccc(N4Cc5ccccc5C4)c3F)cc21 [Compound 68]
result: 6.30 to 7.00
--
compound: C[C@@]1(C#N)COCc2ccc(C(=O)NCc3cc([C@H]4C[C@@H]4c4ccccc4)ccn3)cc21 [Compound 7]
result: < 6.00

query: May I ask what pIC50 has been recorded for COC(=O)c1cccc(C#Cc2ccnc(CNC(=O)c3ccc4c(c3)[C@](C)(C#N)COC4)c2)c1 [Compound 3] ?
result: < 6.00

query: Moving on to the next compound: C[C@@]1(F)COCc2ncc(C(=O)NCc3cc4nc(-c5ccnc(N6CCC6)n5)sc4cn3)cc21 [Compound 244]
result: < 6.00

query: Please answer likewise for C[C@@]1(C#N)COCc2ccc(C(=O)NCc3cc4nn(-c5ccccc5)cc4cn3)cc21 [Compound 524]
result: < 6.00
